assay: drug combination growth inhibition, ovarian cancer – cell-based, oncology-focused library, rucaparib conditional, profiling panel (AID 1508598); settings: patient-derived ovarian cancer cells, CellTiter-Glo viability, 144 h; at 0.0781 µM; OCI-P5x cells; with rucaparib 20 µM; stronger effect = lower value; 100% = cells with rucaparib alone
*1 amine or outer side, *2 acyl side, *3 side chain or, on linkers, in order; H or OH if unused. Where a SMILES comes first, the peptide text is derived from it. Bridges are numbered along the chain shown (N, C = ends). Roman numbers before positions name the chains, in order. [ ]: non-standard residue; d: D form. Hexamethylenediamine = C(CCCN[*:2])CCN[*:1]; Dip = N[C@H](C(=O)O)C(c1ccccc1)c1ccccc1; Chg = N[C@H](C(=O)O)C1CCCCC1; NMeA = CN[C@@H](C)C(=O)O
The following compounds are listed with their measured viability values.
Write the number in % without appending the unit.

Completed entries (count: 3):
COMPOUND: CN[C@@H](C)C(=O)N[C@H](C(=O)N1CCC[C@H]1C(=O)N[C@H](C(=O)NCCCCCCNC(=O)[C@@H](NC(=O)[C@@H]1CCCN1C(=O)[C@@H](NC(=O)[C@H](C)NC)C1CCCCC1)C(c1ccccc1)c1ccccc1)C(c1ccccc1)c1ccccc1)C1CCCCC1 (I: H-[NMeA][Chg]P[Dip] / II: H-[NMeA][Chg]P[Dip]; linker I:C-II:C via Hexamethylenediamine)
viability [%]: 39.3
--
COMPOUND: CC#C[C@@]1(O)CC[C@H]2[C@@H]3CCC4=CC(=O)CCC4=C3[C@H](c3ccc(N(C)C)cc3)C[C@@]21C
viability [%]: 84.5
--
COMPOUND: C[C@H](O[C@H]1OCCN(Cc2n[nH]c(=O)[nH]2)[C@H]1c1ccc(F)cc1)c1cc(C(F)(F)F)cc(C(F)(F)F)c1
viability [%]: 117

Return reported viability; argument: N[C@@H]1CCCN(c2c(/C=C3\SC(=O)NC3=O)cccc2-c2ccccc2)C1
101

Return reported viability; argument: C[C@]12CCC(=O)C=C1CC[C@@H]1[C@H]2[C@H](O)C[C@@]2(C)[C@H]1CC[C@@]2(O)C(=O)CO
103

Return reported viability; argument: Cc1ccc(NC(=O)c2ccc(CN3CCN(C)CC3)cc2)cc1Nc1nc(-c2cccnc2)cs1
97

Return reported viability; argument: Nc1nc(F)nc2c1ncn2[C@H]1O[C@H](CO)[C@@H](O)[C@@H]1O
110

Return reported viability; argument: CC(=O)O[C@@]1(C(C)=O)CC[C@H]2[C@@H]3C[C@H](C)C4=CC(=O)CC[C@]4(C)[C@@H]3CC[C@@]21C
94

###

The following compounds are listed with their measured inhibition values.
experiment: growth inhibition, single agents and combos, ICB984, cell-based, cisplatin or BGB combos, synergistic combos for chromothripsis tumors (AID 1671451); details: ICB984 medulloblastoma cells, drug combinations, BGB IC40 combo, at 0.005 µM, stronger effect = higher value;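 also: cells exposed for 96 hours before readout; 0% = vehicle DMSO and 100% = killing by high DMSO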
Write the quantity with the unit trailing the number.

COMPOUND: COc1nc(N)nc2c1ncn2[C@@H]1O[C@H](CO)[C@@H](O)[C@H]1O
inhibition: -6.48%
//
COMPOUND: O=c1cc(-c2ccc(O)cc2)[nH]c(=S)[nH]1
inhibition: -25.6%
//
COMPOUND: CC(C=CC(=O)NO)=CC(C)C(=O)c1ccc(N(C)C)cc1 (stereo not drawn)
inhibition: 90.3%
//
COMPOUND: C=C(NC(=O)C(=C)NC(=O)c1csc(C2=NC3c4csc(n4)C4NC(=O)c5csc(n5)C(C(C)(O)C(C)O)NC(=O)C5CSC(=N5)/C(=C/C)NC(=O)C(C(C)O)NC(=O)c5csc(n5)C3(CC2)NC(=O)C(C)NC(=O)C(=C)NC(=O)C(C)NC(=O)C(C(C)CC)NC2C=Cc3c(C(C)O)cc(nc3C2O)C(=O)OC4C)n1)C(N)=O (stereo not drawn)
inhibition: -7.37%
//
COMPOUND: Nc1ccn(C2CCC(CO)O2)c(=O)n1 (stereo not drawn)
inhibition: -15.6%
//
COMPOUND: C=C(C)C1CCC2(C(=O)O)CCC3(C)C(CCC4C5(C)CCC(O)C(C)(C)C5CCC43C)C12 (stereo not drawn)
inhibition: -18.6%
//
COMPOUND: CC1CN(c2c(F)c(N)c3c(=O)c(C(=O)O)cn(C4CC4)c3c2F)CC(C)N1 (stereo not drawn)
inhibition: 11%

// switching to the query compound
Return reported inhibition; argument: CC1OC(n2cc(F)c(=O)[nH]c2=O)C(O)C1O (stereo not drawn)
-26.6%

###

assay: viability loss with induced miR-34 in A549 – imaging, A549 dox-inducible miR-34, nuclei and caspase counts, primary screen (AID 1347080); settings: A549 miR-34 inducible, Hoechst nuclei count, 48 h; measured here: relative caspase fold change +Dox/-Dox
READOUT_LABEL: fold change
Write the number on its own, no unit after it.

Completed entries (count: 2):
COMPOUND: Cn1nc(-c2cccnc2)c2[nH]c(-c3ccc4c(c3)OCCO4)nc21
RECORDED_VALUE: 1.08

COMPOUND: CN1CCN(Cc2cccc(-n3cccn3)c2)CC1CCO (stereo not drawn)
RECORDED_VALUE: 3.04

Return reported fold change; argument: Cn1nc(NC(=O)Cn2cc(-c3nccc4occc34)cn2)c2ccccc21
2.06

Return reported fold change; argument: CC(=O)OC1C[C@@H]2CC[C@@H]3[C@@H](CC[C@]4(C)C(OC(C)=O)C([N+]5(C)CCCCC5)C[C@@H]34)[C@@]2(C)CC1[N+]1(C)CCCCC1 (stereo partly drawn)
0.749

Return reported fold change; argument: CCOc1ccc(Cc2cc(C3OC(CO)C(O)C(O)C3O)ccc2Cl)cc1 (stereo not drawn)
0.801

Return reported fold change; argument: O=C(O)c1cnn(-c2ccccc2)c1
0.82

Return reported fold change; argument: CC(O)c1cn(C2CCN(c3ncnc4nc[nH]c34)CC2)nn1 (stereo not drawn)
1.71

Return reported fold change; argument: COC(=O)c1ccc(=O)c2nc3/c(=C/O)c(O)cc(=O)c3[nH]c12
1.28

###

test: viability loss with induced miR-34 in A549 – imaging, A549 dox-inducible miR-34, nuclei and caspase counts, primary screen (AID 1347080); conditions: A549 miR-34 inducible, Hoechst nuclei count, 48 h; measured here: total cells with miR-34 induction; stronger effect = lower value
Peptide text beside a SMILES is read from it. * marks the point of attachment. Boc = CC(C)(C)OC(=O)*
READOUT_LABEL: cell count

Completed entries (count: 3):
COMPOUND: C=CCc1ccc(O)c(-c2cc(CC=C)ccc2O)c1
RECORDED_VALUE: 7490
--
COMPOUND: C1=CCOCc2cc(ccc2OCCN2CCCC2)Nc2nccc(n2)-c2cccc(c2)COC1
RECORDED_VALUE: 776
--
COMPOUND: COCC1CCCN(Cc2cccc(-c3nc(-c4cccnc4)cc(=O)[nH]3)c2)C1 (stereo not given)
RECORDED_VALUE: 8420

Return reported cell count; argument: Cn1c(=O)c(O)c(O)c2ccccc21
4980

Return reported cell count; argument: CSc1ccccc1N1CCN(CCCCCC(=O)NC2CCCc3ccccc32)CC1 (stereo not given)
7020

Return reported cell count; argument: CC(=O)NC(CCCN=C(N)N)C(=O)O (stereo not given)
8640

Return reported cell count; argument: CC(C)[C@H](NC(=O)CNC(=O)OC(C)(C)C)C(=O)N[C@H](C=O)C(C)C (Boc-Gly-Val-Val-aldehyde)
5740

Return reported cell count; argument: CN(C)c1ccc(N=Nc2ccccc2C(=O)O)cc1
2520

Return reported cell count; argument: COC(=O)[C@@H]1CC(=O)O[C@H](C)C/C=C/C=C/[C@H](O)[C@H](C)C[C@H](CC=O)[C@H](OC2O[C@H](C)[C@@H](OC3C[C@@](C)(O)[C@@H](OC(=O)CC(C)C)[C@H](C)O3)[C@H](N(C)C)[C@H]2O)[C@H]1OC (stereo not given in full)
11900

Return reported cell count; argument: CC(C)(C)NC(=O)C1CC2CCCCC2CN1CC(O)C(Cc1ccccc1)NC(=O)C(CC(N)=O)NC(=O)c1ccc2ccccc2n1 (stereo not given)
4860

Return reported cell count; argument: Cc1cnc(NC(=O)Nc2cc(Br)c(C)cc2OCC2CNCCO2)cn1 (stereo not given)
1910

Return reported cell count; argument: Cc1cc(C=Cc2ccc3cc(N(C)C)ccc3[n+]2C)c(C)n1-c1ccccc1
2390

Return reported cell count; argument: CCCC(CCC)C(=O)OC1CC2CCC(C1)[N+]2(C)C (stereo not given)
9840

Return reported cell count; argument: COc1cc(C(O)CO)ccc1OS(=O)(=O)O (stereo not given)
10400

Return reported cell count; argument: CCCC1C(=O)N2C(N(C)C)=Nc3ccc(C)cc3N2C1=O (stereo not given)
8830

Return reported cell count; argument: O=c1[nH]c2cc(Cl)ccc2c(O)c1-c1ccc(Oc2ccccc2)cc1
10400

Return reported cell count; argument: O=[N+]([O-])OCC(CO[N+](=O)[O-])O[N+](=O)[O-]
10800

Return reported cell count; argument: C=C1CC[C@H](O)C/C1=C/C=C1\CCC[C@]2(C)[C@@H]([C@H](C)CCCC(C)C)CC[C@@H]12
8940

Return reported cell count; argument: CC(=O)SC1CC2=CC(=O)CC[C@]2(C)C2CC[C@@]3(C)C(CC[C@@]34CCC(=O)O4)C12 (stereo not given in full)
7810

Return reported cell count; argument: CNc1ncnc2c1ncn2[C@H]1C[C@H](OP(=O)(O)O)[C@@H](COP(=O)(O)O)O1
10600

Return reported cell count; argument: OCCNc1ncnc2oc(-c3ccccc3)c(-c3ccccc3)c12
5100

Return reported cell count; argument: O=C(Nc1n[nH]c(-c2ccco2)n1)N1CCc2ccccc2C1
7540

Return reported cell count; argument: O=[N+]([O-])c1ccc(-c2ccn[nH]2)cc1
8360

Return reported cell count; argument: Fc1ccccc1-c1cc(NCc2ccncc2)n2nccc2n1
4240

Return reported cell count; argument: COc1ccc2c(c1)N(C[C@H](C)CN(C)C)c1ccccc1S2
7810
